Attribution: patent US9168259B2

So I've got a bunch of molecules here, and I need their Emax values.
biological target: KCNQ2/3 channels (Homo sapiens, UniProt O43525+O43526); construct: expressed in transfected cells; assay: Fluorescence assay using a voltage sensitive dye (fluorimetry); format: cell-based; conditions: CHO-K1, plateau effect relative to saturated retigabine (50 μM) = 100%; CHO-K1 cells expressing KCNQ2/3; negative values = antagonistic; read-out: Fluorimetry % efficacy (retigabine = 100%)
Sequence (O43526 whole entry): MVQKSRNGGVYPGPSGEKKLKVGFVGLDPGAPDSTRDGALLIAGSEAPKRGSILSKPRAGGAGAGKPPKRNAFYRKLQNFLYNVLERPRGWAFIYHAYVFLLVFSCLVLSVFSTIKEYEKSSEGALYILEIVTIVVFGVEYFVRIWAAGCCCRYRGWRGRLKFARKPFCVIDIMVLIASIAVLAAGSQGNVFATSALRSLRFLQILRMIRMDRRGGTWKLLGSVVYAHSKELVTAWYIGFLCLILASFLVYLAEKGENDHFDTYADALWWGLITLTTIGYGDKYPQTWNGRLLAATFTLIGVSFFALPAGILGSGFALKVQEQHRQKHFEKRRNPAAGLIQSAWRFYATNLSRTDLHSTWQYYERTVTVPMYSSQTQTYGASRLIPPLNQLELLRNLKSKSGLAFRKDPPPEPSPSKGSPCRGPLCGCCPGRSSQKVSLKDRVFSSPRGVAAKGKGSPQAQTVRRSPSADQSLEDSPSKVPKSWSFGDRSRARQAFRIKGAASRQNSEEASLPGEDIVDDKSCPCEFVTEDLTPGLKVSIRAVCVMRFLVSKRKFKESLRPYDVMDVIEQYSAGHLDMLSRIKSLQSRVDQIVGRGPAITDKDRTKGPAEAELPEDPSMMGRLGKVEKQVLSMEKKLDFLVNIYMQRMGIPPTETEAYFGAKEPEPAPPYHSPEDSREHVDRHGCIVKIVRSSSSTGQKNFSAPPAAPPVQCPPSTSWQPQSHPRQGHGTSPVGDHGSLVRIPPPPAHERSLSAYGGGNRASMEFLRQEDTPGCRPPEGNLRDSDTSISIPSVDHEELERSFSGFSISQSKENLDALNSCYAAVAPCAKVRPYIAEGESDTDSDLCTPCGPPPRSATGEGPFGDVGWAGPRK
Sequence (O43525 whole entry): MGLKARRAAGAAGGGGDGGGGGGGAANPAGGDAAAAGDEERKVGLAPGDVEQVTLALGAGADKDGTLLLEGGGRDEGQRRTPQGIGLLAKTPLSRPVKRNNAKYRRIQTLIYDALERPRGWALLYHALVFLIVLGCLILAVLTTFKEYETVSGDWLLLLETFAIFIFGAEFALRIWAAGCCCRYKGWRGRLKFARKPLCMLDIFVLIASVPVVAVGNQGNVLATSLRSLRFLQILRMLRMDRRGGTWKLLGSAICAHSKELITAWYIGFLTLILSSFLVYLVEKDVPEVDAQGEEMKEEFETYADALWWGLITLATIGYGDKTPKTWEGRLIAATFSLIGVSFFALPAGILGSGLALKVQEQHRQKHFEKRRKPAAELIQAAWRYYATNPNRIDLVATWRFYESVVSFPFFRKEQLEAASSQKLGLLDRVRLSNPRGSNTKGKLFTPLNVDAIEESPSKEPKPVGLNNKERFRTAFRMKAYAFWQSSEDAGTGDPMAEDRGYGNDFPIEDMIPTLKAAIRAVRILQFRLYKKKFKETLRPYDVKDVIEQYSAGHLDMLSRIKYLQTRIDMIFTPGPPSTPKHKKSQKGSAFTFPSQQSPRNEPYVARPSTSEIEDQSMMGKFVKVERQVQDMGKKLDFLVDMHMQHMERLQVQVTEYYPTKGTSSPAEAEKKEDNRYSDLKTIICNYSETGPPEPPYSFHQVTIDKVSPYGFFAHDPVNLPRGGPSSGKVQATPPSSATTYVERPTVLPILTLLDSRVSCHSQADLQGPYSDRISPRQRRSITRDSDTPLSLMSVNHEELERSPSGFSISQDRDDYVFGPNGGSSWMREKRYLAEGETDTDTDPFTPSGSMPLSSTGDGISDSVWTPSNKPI
I only need the number, in %, no unit after it.

Entry CCSc1nc(N(CCOC)Cc2ccc(F)cc2)cc(C)c1C(=O)NCc1cccc(F)c1 has what Emax?
124

Then what about the molecule CCCc1nc(N2CCOCC2)cc(C)c1C(=O)NCCCC(C)(C)C ?
229

Likewise for CCSc1nc(N2CCOC[C@H]2COC)cc(C)c1C(=O)NCc1ccc(Cl)cc1 ?
221

Now consider CCSc1nc(N2CCOCC2)cc(C)c1C(=O)NCc1ccccc1-c1ccc(F)cc1 .
-102

What do we get for Cc1cc(N2CCOCC2)nc(C(C)C)c1C(=O)NCCCC(F)(F)F ?
187

Next molecule up: CCSc1nc(N2CCOCC2)cc(C)c1C(=O)NCc1ccc(F)c(C)c1
127

Next entry: CCSc1nc(N2CCS(=O)(=O)CC2)cc(C)c1C(=O)NCc1cccc(F)c1
127

Query CCSc1nc(N2CCOCC2)cc(C)c1C(=O)NCCCC1CC1 next
167

CCSc1nc(N2CCO[C@H](COC)C2)cc(C)c1C(=O)NCc1ccc(Cl)cc1 ?
121

###

Can you tell me pEC50 for the items I'm about to list?
molecular target: KCNQ2/3 channels (Homo sapiens, UniProt O43525+O43526); construct: expressed in transfected cells; test: Fluorescence assay using a voltage sensitive dye (fluorimetry); format: cell-based; conditions: CHO-K1 cells expressing KCNQ2/3; IC50 where % efficacy is negative; read-out: Fluorimetry EC50/IC50
pEC50 (log units): -log10 of the concentration in mol/L.

Requested read-out: pEC50. Entry: Cc1cc(N2CCOCC2)nc(N2CCOCC2)c1C(=O)NCc1cccc(F)c1
5.70

Check CCSc1nc(N2CCOCC2)cc(C)c1C(=O)NCc1ccc([N+](=O)[O-])cc1 too.
6.51

# iterate: CCSc1nc(N2CCc3cc(C(F)(F)F)ccc3C2)cc(C)c1C(=O)NCc1cccc(F)c1
6.82

Try this compound too: CCSc1nc(N(C)c2cccnc2)cc(C)c1C(=O)NCc1cccc(F)c1
5.71

###

Provide the reported Emax of each item.
biological target: KCNQ2/3 channels (Homo sapiens, UniProt O43525+O43526); construct: expressed in transfected cells; assay: Fluorescence assay using a voltage sensitive dye (fluorimetry); format: cell-based; details: CHO-K1, plateau effect relative to saturated retigabine (50 μM) = 100%; CHO-K1 cells expressing KCNQ2/3; negative values = antagonistic; read-out: Fluorimetry % efficacy (retigabine = 100%)
Dear colleague, please return just the value in %, with no unit written.

Which value of Emax has been reported for CCSc1nc(N2CCO[C@@H](COC)C2)cc(C)c1C(=O)NCc1cccc(F)c1 [Example 223] in the records?
137

Request: CCSc1nc(N2CCOCC2)cc(C)c1C(=O)NCc1ccc(C(F)(F)F)c(F)c1 [Example 142]
125

What do you get for COc1nc(N2CCOCC2)cc(C)c1C(=O)NCc1cc(F)cc(F)c1 [Example 3] ?
132

Input CCSc1nc(N(C)c2cccnc2)cc(C)c1C(=O)NCc1cccc(F)c1 [Example 171]
62

Check CCSc1nc(N(C)C)cc(C)c1C(=O)NCCCC(C)(C)C [Example 210] too.
223

Same thing, different compound: Cc1cc(N2CCOC[C@H]2C)nc(N(C)C)c1C(=O)NCc1ccc(F)cc1 [Example 172]
246

Another compound to look at: CCSc1nc(N2CCC2)cc(C)c1C(=O)NCc1cccc(F)c1 [Example 299]
104

Param item: COCCSc1nc(N2CCOCC2)cc(C)c1C(=O)NCc1cccc(F)c1 [Example 63]
157

And what about the compound CCSc1nc(N2CCOCC2)c(F)c(C)c1C(=O)NCc1cccc(F)c1 [Example 58] ?
173

// query: CCN(C)c1nc(N2CCOC[C@H]2C)cc(C)c1C(=O)NCc1ccc(F)cc1 [Example 173]
259

Repeat for the following compound: COCCSc1nc(N2CCOCC2)cc(C)c1C(=O)NCCCC(C)(C)C [Example 337]
237

Entry CCSc1nc(N2CCOCC2)cc(C)c1C(=O)NCc1cccc(C)c1 [Example 164] please
122

Now this one: Cc1cc(N2CCOCC2)nc(SC(C)C)c1C(=O)NCc1cccc(F)c1 [Example 37]
148

Same thing, different compound: CCSc1nc(N2CCOCC2)cc(C)c1C(=O)NCCCC(C)(C)CC [Example 348]
228

Then this compound: CCSc1nc(N(C)C2CCCOC2)cc(C)c1C(=O)NCCCC(C)(C)C (stereo not shown) [Example 280]
165

Please do the same for CCN(C)c1nc(N2CCOCC2)cc(C)c1C(=O)NCc1ccc(Cl)cc1 [Example 191] as well.
214

And the next one, CCSc1nc(N2CCOCC2)cc(C)c1C(=O)NCc1ccc(F)cc1OC [Example 17] ?
21

Consider next the compound CCCCCCNC(=O)c1c(C)cc(N2CCOCC2)nc1SCC [Example 217] in the same way.
181

Follow-up entry: CCSc1nc(N2CCOCC2)cc(C)c1C(=O)NCc1ccc(C)cc1 [Example 161]
143
